TARGET ENTITY: full-length P. pyralis luciferase (Photinus pyralis, UniProt P08659, K549A/L550V/N119G/N50D/S548I)
Sequence (P08659 whole entry N50D/N119G/S548I/K549A/L550V, looked up): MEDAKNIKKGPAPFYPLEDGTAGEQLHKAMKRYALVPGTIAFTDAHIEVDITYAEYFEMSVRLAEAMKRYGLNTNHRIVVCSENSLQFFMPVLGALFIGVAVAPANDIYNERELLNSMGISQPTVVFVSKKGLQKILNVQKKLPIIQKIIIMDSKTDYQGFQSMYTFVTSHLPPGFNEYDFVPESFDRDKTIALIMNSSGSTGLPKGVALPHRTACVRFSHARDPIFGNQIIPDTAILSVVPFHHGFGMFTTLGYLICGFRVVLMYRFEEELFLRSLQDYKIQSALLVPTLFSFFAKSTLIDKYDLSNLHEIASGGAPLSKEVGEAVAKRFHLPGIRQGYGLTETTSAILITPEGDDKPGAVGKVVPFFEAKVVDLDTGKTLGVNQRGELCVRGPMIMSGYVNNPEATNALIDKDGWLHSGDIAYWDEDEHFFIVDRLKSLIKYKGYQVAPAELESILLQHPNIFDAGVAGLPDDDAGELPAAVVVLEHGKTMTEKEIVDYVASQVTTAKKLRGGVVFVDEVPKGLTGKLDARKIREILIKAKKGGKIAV
Assay type: cell-based
MEASUREMENT PARAMETERS: CC_NCI screening; full-length luciferase counter-screen luminescence; normalized to on-plate 0.3% DMSO controls
Counter-ions that a name gives are not always drawn.
ASSAY ENDPOINT: Luciferase Assay % Lum (%)

{"columns": ["COMPOUND", "READING"],
 "data": [
  ["NC1(c2ccc(-c3nc4ccn5c(=O)[nH]nc5c4cc3-c3ccccc3)cc2)CCC1", 85.95],
  ["COc1cc(Nc2c(C#N)cnc3cc(OCCCN4CCN(C)CC4)c(OC)cc23)c(Cl)cc1Cl [Bosutinib]", 70.20],
  ["COc1cc2c(Oc3ccc4[nH]c(C)cc4c3F)ncnc2cc1OCCCN1CCCC1", 80.88],
  ["O=C1c2c(O)ccc(O)c2C(=O)c2c(NCCNCCO)ccc(NCCNCCO)c21", 40.29],
  ["Cc1[nH]c(/C=C2\\C(=O)Nc3ccc(S(=O)(=O)N(C)c4cccc(Cl)c4)cc32)c(C)c1C(=O)N1CCN(C)CC1", 85.15],
  ["COc1cc2c(N3CCN(C(=O)Nc4ccc(OC(C)C)cc4)CC3)ncnc2cc1OCCCN1CCCCC1", 88.98],
  ["CN(C)CC[C@H](CSc1ccccc1)Nc1ccc(S(=O)(=O)NC(=O)c2ccc(N3CCN(Cc4ccccc4-c4ccc(Cl)cc4)CC3)cc2)cc1[N+](=O)[O-]", 95.47],
  ["C[C@]12CC[C@@H]3c4ccc(O)cc4C[C@@H](CCCCCCCCC[S+]([O-])CCCC(F)(F)C(F)(F)F)[C@H]3[C@@H]1CC[C@@H]2O (stereo partly shown)", 83.45],
  ["Cc1ccc(-c2cc(C(F)(F)F)nn2-c2ccc(S(N)(=O)=O)cc2)cc1", 60.07],
  ["COc1cccc2c1C(=O)c1c(O)c3c(c(O)c1C2=O)C[C@@](O)(C(C)=O)C[C@@H]3O[C@H]1C[C@H](N)[C@H](O)[C@H](C)O1 [Daunorubicin hydrochloride]", 65.12],
  ["Cc1cc(Nc2ncc3cc(-c4c(Cl)cccc4Cl)c(=O)n(C)c3n2)ccc1F", 100.96],
  ["CCC1=C[C@@H]2CN(C1)Cc1c([nH]c3ccccc13)[C@@](C(=O)OC)(c1cc3c(cc1OC)N(C)[C@H]1[C@@](O)(C(=O)OC)[C@H](OC(C)=O)[C@]4(CC)C=CCN5CC[C@]31[C@@H]54)C2 [Vinorelbine tartrate]", 110.51],
  ["Cn1cnc2c(F)c(Nc3ccc(Br)cc3Cl)c(C(=O)NOCCO)cc21", 96.05],
  ["COc1ccc(Cl)cc1[C@]1(F)C(=O)Nc2cc(C(F)(F)F)ccc21", 36.55],
  ["CCCCCCCCCCCCSc1nc2c([nH]1)c(=O)n(C)c(=O)n2C", 103.16],
  ["COC1=CC(c2cc3ccccc3[nH]2)=N/C1=C\\c1[nH]c(C)cc1C", 78.33],
  ["NC(=O)c1ccc(I)c([N+](=O)[O-])c1", 101.73],
  ["CO[C@@H]1[C@H](N(C)C(=O)c2ccccc2)C[C@H]2O[C@]1(C)n1c3ccccc3c3c4c(c5c6ccccc6n2c5c31)C(=O)NC4", 89.50],
  ["Cc1nc(Nc2ncc(C(=O)Nc3c(C)cccc3Cl)s2)cc(N2CCN(CCO)CC2)n1 [Dasatinib]", 84.22],
  ["CN[C@@H]1C[C@H]2O[C@@](C)([C@@H]1OC)n1c3ccccc3c3c4c(c5c6ccccc6n2c5c31)C(=O)NC4 [Staurosporine, reference compound]", 101.58],
  ["N#C/C(=C/c1ccc(O)c(O)c1)C(=O)NCc1ccccc1", 85.62],
  ["C[C@]1(c2nc3c(C(N)=O)cccc3[nH]2)CCCN1", 105.22],
  ["COC1=C2C[C@@H](C)C[C@H](OC)[C@H](O)[C@@H](C)/C=C(\\C)[C@H](OC(N)=O)[C@@H](OC)/C=C\\C=C(/C)C(=O)NC(=CC1=O)C2=O", 102.35],
  ["CS(=O)(=O)c1ccc(C(=O)Nc2ccc(Cl)c(-c3ccccn3)c2)c(Cl)c1 [Vismodegib, reference compound]", 90.92],
  ["O=C(/C=C/c1ccc(CN(CCO)CCc2c[nH]c3ccccc23)cc1)NO", 95.25],
  ["Nc1nc2[nH]cc(CCc3ccc(C(=O)N[C@@H](CCC(=O)O)C(=O)O)cc3)c2c(=O)[nH]1", 94.26],
  ["CN(NC(=O)CC(=O)NN(C)C(=S)c1ccccc1)C(=S)c1ccccc1", 99.01],
  ["COc1cc2c(Nc3ccc(Br)cc3F)ncnc2cc1OCC1CCN(C)CC1", 80.83],
  ["N#Cc1ccc(C(c2ccc(C#N)cc2)n2cncn2)cc1", 99.90],
  ["Oc1ncnc2[nH]ncc12", 96.95],
  ["C=C(c1ccc(C(=O)O)cc1)c1cc2c(cc1C)C(C)(C)CCC2(C)C", 99.04]
]}

----------
TARGET ENTITY: full-length P. pyralis luciferase (Photinus pyralis, UniProt P08659, K549A/L550V/N119G/N50D/S548I)
Assay type: cell-based
MEASUREMENT PARAMETERS: CC_NCI screening; normalized to on-plate 0.3% DMSO controls
ASSAY ENDPOINT: Luciferase Assay Z-score (full-length luciferase counter-screen)

{"columns": ["COMPOUND", "READING"],
 "data": [
  ["CN(Cc1cnc2nc(N)nc(N)c2n1)c1ccc(C(=O)N[C@@H](CCC(=O)O)C(=O)O)cc1 [Methotrexate]", -0.73],
  ["O=C(NCCCNc1nc(Nc2cccc(NC(=O)N3CCCC3)c2)ncc1I)c1cccs1", -3.76],
  ["Oc1cccc(-c2nc(N3CCOCC3)c3oc4ncccc4c3n2)c1", 0.79],
  ["CC(=O)OCCN1C(=O)c2c(C)nc3ccc(S(=O)(=O)N4CCOCC4)cc3c2C1=O", 0.34],
  ["C#Cc1cccc(Nc2ncnc3cc(OCCOC)c(OCCOC)cc23)c1", -2.44],
  ["O=c1[nH]nc(Sc2ncc([N+](=O)[O-])s2)n1-c1ccc2c(c1)OCCO2", -12.19],
  ["NC(=O)c1ccc(N(C(N)=O)c2c(F)cccc2F)nc1-c1ccc(F)cc1F", -0.78],
  ["CO[C@@]12[C@H](COC(N)=O)C3=C(C(=O)C(C)=C(N)C3=O)N1C[C@@H]1N[C@@H]12", 1.41]
]}

----------
TARGET ENTITY: FGF14:Nav1.6 C-tail complex (Homo sapiens, UniProt Q92915+Q9UQD0)
Construct: polymerase chain reaction (PCR) amplification of the FGF14 open reading frame (nt 1–855); C-terminal fragment of Nav1.6 (amino acids 1763–1976) fused with CD4ΔC-tail (amino acids 1–395); expressed in transfected cells
Sequence (Q92915 1-252 isoform Q92915-2): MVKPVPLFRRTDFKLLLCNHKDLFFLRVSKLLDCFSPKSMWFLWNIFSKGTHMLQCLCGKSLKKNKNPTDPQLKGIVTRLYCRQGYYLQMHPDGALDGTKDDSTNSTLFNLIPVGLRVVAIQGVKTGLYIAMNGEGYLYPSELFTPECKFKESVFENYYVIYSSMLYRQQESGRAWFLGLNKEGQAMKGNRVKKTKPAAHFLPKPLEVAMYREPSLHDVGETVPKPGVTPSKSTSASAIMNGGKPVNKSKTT
Sequence (Q9UQD0 1763-1976 limits assumed): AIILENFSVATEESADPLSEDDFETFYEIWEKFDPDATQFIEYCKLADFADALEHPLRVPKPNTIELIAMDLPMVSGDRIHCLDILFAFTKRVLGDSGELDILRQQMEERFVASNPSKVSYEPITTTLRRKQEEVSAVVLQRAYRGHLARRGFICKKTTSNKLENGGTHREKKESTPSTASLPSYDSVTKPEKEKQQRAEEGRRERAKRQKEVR
ASSAY TEXT: Split-luciferase complementation assay (LCA) in Clone V double stable HEK293 cells
Assay type: cell-based
MEASUREMENT PARAMETERS: CC_NCI screening; LCA luminescence, biological replicate Set 1; normalized to on-plate 0.3% DMSO controls (n=16 per plate)
Structures can show the parent of a compound that is named as a salt.
ASSAY ENDPOINT: Split Luciferase Assay % Lum Set 1 (%)

{"columns": ["COMPOUND", "ASSAY ENDPOINT", "DISPLAY UNIT", "READING"],
 "data": [
  ["OCCn1cc(-c2cnc3nnn(Cc4ccc5ncccc5c4)c3n2)cn1", "Split Luciferase Assay % Lum Set 1", "%", 90.56],
  ["Cn1nnc2c(C(N)=O)ncn2c1=O [Temozolomide]", "Split Luciferase Assay % Lum Set 1", "%", 106.86],
  ["O=c1[nH]c(=O)n([C@H]2C[C@H](O)[C@@H](CO)O2)cc1F [Floxuridine, reference compound]", "Split Luciferase Assay % Lum Set 1", "%", 154.69],
  ["Oc1ccc(-c2nc(-c3ccncc3)c(-c3ccc(F)cc3)[nH]2)cc1", "Split Luciferase Assay % Lum Set 1", "%", 101.43],
  ["FC(F)c1nc2ccccc2n1-c1nc(N2CCOCC2)nc(N2CCOCC2)n1", "Split Luciferase Assay % Lum Set 1", "%", 95.99],
  ["CCn1c(-c2nonc2N)nc2cnc(Oc3cccc(NC(=O)c4ccc(OCCN5CCOCC5)cc4)c3)cc21 [GSK 269962A]", "Split Luciferase Assay % Lum Set 1", "%", 26.42],
  ["Cc1ccc(Nc2nccc(N(C)c3ccc4c(C)n(C)nc4c3)n2)cc1S(N)(=O)=O.Cl [Pazopanib hydrochloride]", "Split Luciferase Assay % Lum Set 1", "%", 13.37],
  ["CNC(=O)c1ccccc1Sc1ccc2c(/C=C/c3ccccn3)n[nH]c2c1 [Axitinib]", "Split Luciferase Assay % Lum Set 1", "%", 32.94],
  ["NC(=O)c1ccc(-c2nc(-c3ccc4c(c3)OCO4)c(-c3ccccn3)[nH]2)cc1", "Split Luciferase Assay % Lum Set 1", "%", 112.30],
  ["CC(/C=C/C(=O)NO)=C\\[C@@H](C)C(=O)c1ccc(N(C)C)cc1", "Split Luciferase Assay % Lum Set 1", "%", 147.09],
  ["O=[As]O[As]=O (centres unmarked) [Arsenic trioxide]", "Split Luciferase Assay % Lum Set 1", "%", 20.98],
  ["COc1cccc2c1C(=O)c1c(O)c3c(c(O)c1C2=O)C[C@@](O)(C(=O)CO)C[C@@H]3O[C@H]1C[C@H](N)[C@H](O)[C@H](C)O1 [Doxorubicin hydrochloride]", "Split Luciferase Assay % Lum Set 1", "%", 49.25],
  ["C=CC(=O)Nc1cc2c(Nc3ccc(F)c(Cl)c3)ncnc2cc1OCCCN1CCOCC1", "Split Luciferase Assay % Lum Set 1", "%", 28.59],
  ["Cc1ccc(Nc2nccc(N(C)c3ccc4c(C)n(C)nc4c3)n2)cc1S(N)(=O)=O", "Split Luciferase Assay % Lum Set 1", "%", 100.34],
  ["COc1cc2c(cc1OC)[C@@H]1C(=O)c3ccc4c(c3O[C@@H]1CO2)C=CC(C)(C)O4", "Split Luciferase Assay % Lum Set 1", "%", 27.50],
  ["O=C(CCCCCCC(=O)Nc1ccccc1)NO", "Split Luciferase Assay % Lum Set 1", "%", 88.38],
  ["C#Cc1cccc(Nc2ncnc3cc(OCCOC)c(OCCOC)cc23)c1 [Erlotinib hydrochloride]", "Split Luciferase Assay % Lum Set 1", "%", 118.82]
]}
